Tested on: HCT-15 colon
assay.name: NCI-60 one-dose screen, 48 h
measurement.setup: 10 µM unless noted
Compounds without any hit were thinned out: in the full panel of roughly 83,000, 20% have a hit. Calls of active or inactive are those of the source. How the source made its calls: active means growth percent below 10; inactive means the rest.
Returns: one label drawn from active, inactive

These recorded examples may help you get a feel for the data.
COc1cc(OC)c2c(=O)cc(-c3ccccc3)oc2c1 : inactive
CC(C)OCC1CO1 (configuration not stated) : inactive

Query: Hi, do you know how `COc1cc(CNC(=O)CCCC/C=C/C(C)C)ccc1OCc1nnc(Nc2ccccc2F)o1` came out in this test?
Result: inactive

Query: Hi, do you know how COc1ccc(/C=C2\CCCC3=C2N=C2SC=NN2C3c2ccc(OC)c(OC)c2)cc1OC (configuration not stated) came out in this test?
Result: inactive

Query: Hi, do you know how `COC(=O)/C=C/c1cc(O)c2oc(-c3ccc(O)c(O)c3)c(C(=O)OC)c2c1` came out in this test?
Result: inactive

Query: Hi, do you know how `Ic1ccc(SSc2ccc(I)cc2)cc1` came out in this test?
Result: inactive

Query: Hi, do you know how `COc1cc2c(c3c1c(=O)c1cccc(F)c1n3C)C=CC(C)(C)O2` came out in this test?
Result: inactive

---

Test system: RPMI-8226 leukemia
assay.name: NCI-60 one-dose screen, 48 h
measurement.setup: 10 µM unless noted
The panel holds about 83,000 compounds, 20% with a hit somewhere; the sample as a whole holds those more often. Calls of active or inactive are those of the source. The calls were made as follows: active = growth percent below 10; inactive = the rest.
Returns: one label drawn from yes for active, no for inactive

Cc1nc2ccccc2c(=O)n1-c1cccc(OCc2cn(-c3cccc(O)c3)nn2)c1 : no
Nc1nc2c(c3cnccc13)C(c1ccc(Cl)c(Cl)c1)Cc1cnccc1-2 (stereo not given) : yes
COC(=O)c1ccc2[nH]c(O)c(C(=Nc3ccc(N(C)C(=O)CN4CCN(C)CC4)cc3)c3ccc(C)cc3)c2c1 : yes
O=C1Nc2ccccc2/C1=C/c1cn(CC(O)Cn2cc(/C=C3\C(=O)Nc4ccccc43)c3ccccc32)c2ccccc12 (stereo not given) : yes
COc1ccccc1Nc1nnc(COc2ccc(CNC(=O)CCCC/C=C/C(C)C)cc2OC)o1 : no

Query: Hi, do you know how `COc1cc(-c2nn(-c3ccc(NC(=O)c4ccc(Cl)c(Cl)c4)cc3)cc2-c2ccncc2)ccc1Cl` came out in this test?
Result: yes

Query: Hi, do you know how `CCOc1ccc(/C=N/NC(=O)c2cccc3ccccc23)cc1OCC` came out in this test?
Result: no

Query: Hi, do you know how `CC(=O)CC(=O)OC/C=C(/C)CCC=C(C)C` came out in this test?
Result: no

Query: Hi, do you know how `Cc1ccc(CC(=O)O)c(C)c1` came out in this test?
Result: no

---

Test system: MCF7 breast
assay.name: NCI-60 one-dose screen, 48 h
measurement.setup: 10 µM unless noted
Compounds without any hit were thinned out: in the full panel of roughly 83,000, 20% have a hit. Active and inactive are the calls of the source. The calls were made as follows: active = growth percent below 10; inactive = the rest.
Returns: one label drawn from True (active), False (inactive)

COC1=CC(c2ccc[nH]2)=N/C1=C\c1[nH]c(C)c(C(=O)CCCCC(=O)NC(C)(C)C)c1C : True
O=c1c2c(c3ccccc3n1-c1ccccc1)NC(=S)NC2c1ccccc1 (stereo unspecified) : False
CC1(C)C(O)NC(Cl)=C(C#N)C1(C#N)C#N (stereo unspecified) : False

Query: Hi, do you know how `CNc1nc2ncn(C)c2c(=O)[nH]1` came out in this test?
Result: False

---

Items are presented alongside their recorded growth.
System: T-47D breast
assay.name: NCI-60 one-dose screen, 48 h (100 = growth as untreated, 0 = no growth, -100 = all killed)
measurement.setup: 10 µM unless noted
The panel holds about 83,000 compounds, 20% with a hit somewhere; the sample as a whole holds those more often.
Lab book: enter the figure in %, no units written.

COc1cccc2c1nc1cccc(OC)c1[n+]2[O-] : 32
O=C(Nn1cnc2ccccc21)N1CCCC1 : 106
CCCCCCCCCC(C)NC(=O)CCl (configuration not stated) : 82.6
CC1C(=O)CCCC1=O : 96.1
COc1cc(-c2cc3cnccc3c3nc(N)c4ccncc4c23)cc(OC)c1OC : 37.5
Brc1c(-c2ccncc2)nc2n1CCS2 : 100

Attention now shifts to the item below.
Per the record, `N#Cc1c2cccnc2c2nnc3cc(Cl)c(Cl)cc3n12` has growth of 25.9

---

Items are presented alongside their recorded growth.
Test system: CAKI-1 renal
assay.name: NCI-60 one-dose screen, 48 h (100 = growth as untreated, 0 = no growth, -100 = all killed)
measurement.setup: 10 µM unless noted
This is part of a sample that, as a whole, favours compounds with a hit. Of some 83,000 tested, about 20% had one in any assay.
Lab book: enter the figure in %, no units written.

Examples from the recorded data:
CCCCCCCCCCCCCCCCCC(=O)Nc1ccc(O)cc1 : 95.1
C/C=C(/C)C(=O)OC1C=C(CO)C(=O)C(OC(=O)C(C)(O)C(C)Cl)C1C(C)C (centres undefined) : -44.5
Oc1ccc([S+](c2ccc(O)cc2)c2ccc(O)cc2)cc1 : 102
O=C(/C=C/c1cccc(O)c1)c1cccc(-n2cc(-c3ccc(Cl)cc3)[nH]c2=O)c1 : -53.9

Per the record, `Nc1cc2c(cc1Br)[nH]c(=O)c1ccccc12` has growth of 52.9

Per the record, `c1cc[c]([Bi]([c]2ccccc2)[c]2ccccc2)cc1` has growth of 88.6

Per the record, `COc1cc(OC)c(NC(=O)n2ncc3cc(Nc4ncnc5ccccc45)ccc32)cc1Cl` has growth of 53.6

Per the record, `CCOc1nc(-c2ccccc2)cc2c(O)c(C(=O)N/N=C/c3ccccc3O)[nH]c(=O)c12` has growth of 101

Per the record, `C=C(C)[C@@H]1CC[C@]2(COC(=O)c3ccccc3C(=O)O)CC[C@]3(C)[C@H](CC[C@@H]4[C@@]5(C)CCCNC(C)(C)[C@@H]5CC[C@]43C)[C@@H]12` has growth of 91.7

---

Items are presented alongside their recorded growth.
Test system: SW-620 colon
assay.name: NCI-60 one-dose screen, 48 h (100 = growth as untreated, 0 = no growth, -100 = all killed)
measurement.setup: 10 µM unless noted
About 83,000 compounds went through this panel and 20% of them were active in at least one assay; those are over-represented in the sample as a whole.
Lab book: enter the figure in %, no units written.

Per the record, `Cc1ccc(C(=O)Nc2ccc(CN3CCN(C)CC3)c(C(F)(F)F)c2)cc1C#Cc1cnc(N)c2ccc(C#N)cc12` has growth of 46.2

Per the record, `COc1ccc(/C=C/C(=O)/C=C/c2cc3ccccc3[nH]c2=O)cc1` has growth of 36.4

Per the record, `O=C1C(=O)c2ccccc2C(O)=C1CCCc1ccc(C2CCCC2)cc1` has growth of 24.3

Per the record, `COc1nc(OC)nc(-c2cc(-c3cc(OC)c(OC)c(OC)c3)no2)n1` has growth of 102

Per the record, `CCCCn1c(Cc2ccc(OC)cc2)nc2cc(OC)c(OC)cc2c1=O` has growth of 92.5

---

Tested on: U251 CNS
assay.name: NCI-60 one-dose screen, 48 h (100 = growth as untreated, 0 = no growth, -100 = all killed)
measurement.setup: 10 µM unless noted
Compounds without any hit were thinned out: in the full panel of roughly 83,000, 20% have a hit.
Items are presented alongside their recorded growth.
Lab book: enter the figure in %, no units written.

Examples from the recorded data:
c1ccc(Nc2ccccn2)cc1 : 103
CCCCN(CCC)CCCCCCCCCCN1CCCc2ccccc21 : 87.7
O=C(Nc1ccc(-n2cc(-c3ccncc3)c(-c3ccc(Cl)c(O)c3)n2)cc1)c1cc(C(F)(F)F)cc(C(F)(F)F)c1 : 54.3

Per the record, CC(=O)OC1CC2C3CCC4C[C@@H](NC(=O)C=C(C)C)CC[C@]4(C)C3CC[C@]2(C)[C@H]1C(C)N(C)C (some centres undefined) has growth of 11.5

---

Tested on: A549/ATCC NSCLC
assay.name: NCI-60 one-dose screen, 48 h (100 = growth as untreated, 0 = no growth, -100 = all killed)
measurement.setup: 10 µM unless noted
This is part of a sample that, as a whole, favours compounds with a hit. Of some 83,000 tested, about 20% had one in any assay. The source made the active and inactive calls. How the source made its calls: active means growth percent below 10; inactive means the rest.
recorded.metric: growth

Per the record, `COc1ccc2c(c1)/C(=C/c1c(-c3cc(OC)c(OC)c(OC)c3)nc3sccn13)C(=O)N2` has growth of 110% (inactive)

Per the record, `Cc1nc(NC(=S)Nc2ccc(F)cc2)sc1C(=O)NNC(=S)Nc1ccc(F)cc1` has growth of 66.2% (inactive)

Per the record, O=c1c2c(c3ccccc3n1-c1ccccc1)NC(=S)NC2c1ccc(Cl)cc1 (centres undefined) has growth of 31.7% (inactive)

Per the record, `CCOC(=O)C1=NN(c2ccccc2)C2=NC(=O)/C(=C\c3cn(-c4ccccc4)nc3-c3cc4ccccc4o3)C(=O)N12` has growth of 96.8% (inactive)

Per the record, `CN1CCN(Cc2ccc(NC(=O)c3cncc(C#Cc4c(N)ncc5ccc(F)cc45)c3)cc2C(F)(F)F)CC1` has growth of 26.5% (inactive)

Per the record, `O=C(Nc1ccc(-n2cc(-c3ccncc3)c(-c3ccc(Cl)c(O)c3)n2)cc1)c1cc(Cl)cc(Cl)c1` has growth of 41.4% (inactive)

Per the record, `CC(C)(C)c1ccc([I+]c2ccc(C(C)(C)C)cc2)cc1` has growth of 39.9% (inactive)

Per the record, CCC1(CC)C(OC)NC(Br)=C(C#N)C1(C#N)C(N)=O (centres undefined) has growth of 114% (inactive)

Per the record, `COc1cc2c(cc1OC)C(Cc1cc(OC)c(OC)cc1[N+](=O)[O-])=NCC2` has growth of 90% (inactive)

Per the record, `Cc1nn(-c2ccccc2)c(N)c1N=C1NC(=O)/C(=C/c2ccc(Cl)cc2)S1` has growth of 80.6% (inactive)

Per the record, `CCCCCCCCCCCCCCCCNC(=S)N/N=C/c1ccc(OC)cc1` has growth of 96.1% (inactive)

Per the record, `NC(N)=N/N=C/c1cccc(Br)c1` has growth of 98.8% (inactive)

Per the record, `c1cc[c]([Bi]([c]2ccccc2)[c]2ccccc2)cc1` has growth of 102% (inactive)

Per the record, CCS(=O)(=O)N[C@@H]1O[C@H](COC(C)=O)C(OC(C)=O)[C@H](OC(C)=O)C1OC(C)=O (some centres undefined) has growth of 88.7% (inactive)

Per the record, O=C(O)CS(=O)c1ccc(Cl)cc1 (centres undefined) has growth of 103% (inactive)

Per the record, `c1ccc(Nc2ncc3c(n2)-c2cccn2CC3)cc1` has growth of 113% (inactive)

Per the record, CCOC(=O)C1=C(C(F)(F)F)NC(=O)NC1CN1C(=O)c2ccccc2C1=O (centres undefined) has growth of 115% (inactive)

Per the record, `O=C(CN1C(=O)NC(c2ccccc2)(c2ccccc2)C1=O)c1ccc(N2CCCC2)cc1` has growth of 77.2% (inactive)

Per the record, CC(O)C(N)=O (centres undefined) has growth of 109% (inactive)

Per the record, `CC(C)OC(=O)Nn1cnc2ccccc21` has growth of 117% (inactive)

Per the record, `COc1ccc(C(=O)NCCNc2nccc(-c3c(-c4ccc(F)cc4)nc4sccn34)n2)cc1` has growth of 34% (inactive)

Per the record, `CCCCCCCCCCCCCCCCNC(=O)Nc1ccc(C)c(NC(=O)NCCCCCCCCCCCCCCCC)c1` has growth of 104% (inactive)
